Target: human cathepsin F (Homo sapiens)
Test: Cathepsin F assay (hCat F)
Assay type: biochemical
Conditions: Z-Phe-Arg-AMC substrate, pH 5.5, 15 min preincubation; read-out: hCat F (IP (nM))
Consider the following compounds; for each one, report its IC50.
Only the number, expressed in nM, is required.

**Q:** Record request: IC50 value, item N#CC1(NC(=O)[C@@H]2CCCC[C@H]2c2nc(-c3ccon3)sc2-c2ccc(N3CCS(=O)(=O)CC3)cc2)CC1
**A:** 1360

**Q:** Moving on to the next compound: CC(C)(C)c1ccc(-c2nc([C@@H]3CCCC[C@H]3C(=O)NC3(C#N)CC3)c(-c3ccc(N4CCS(=O)(=O)CC4)cc3)s2)cn1
**A:** 3330

**Q:** Next record, please: N#CC1(NC(=O)[C@@H]2CCCC[C@H]2c2nc(-c3cncc(C(F)(F)F)c3)sc2-c2ccc(N3CCS(=O)(=O)CC3)cc2)CC1
**A:** 1400

**Q:** Next: N#CC1(NC(=O)[C@@H]2CCCC[C@H]2c2nc(Nc3ccccc3)sc2-c2ccc(N3CCS(=O)(=O)CC3)cc2)CC1
**A:** 3740

**Q:** Here is the next compound: CN=S1(=O)CCN(c2ccc(-c3sc(-c4ccc(F)cc4)nc3[C@@H]3CC[C@H](F)C[C@H]3C(=O)NC3(C#N)CC3)cc2)CC1
**A:** 3330

**Q:** Also N#CC1(NC(=O)[C@@H]2CCCC[C@H]2c2nc(C3CCOC3)sc2-c2ccc(N3CCS(=O)(=O)CC3)cc2)CC1 (mixture of isomers) ?
**A:** 1000

**Q:** What do we get for N#CCNC(=O)[C@@H]1CCCC[C@H]1c1nc(C2CC2)sc1-c1ccc(N2CCS(=O)(=O)CC2)cc1 ?
**A:** 564

**Q:** Request: N#CC1(NC(=O)[C@@H]2CCCC[C@H]2c2nc(-c3ccc4c(c3)OCCO4)sc2-c2ccc(N3CCS(=O)(=O)CC3)cc2)CC1
**A:** 1110

**Q:** Can you check N#CC1(NC(=O)[C@@H]2CCCC[C@H]2c2nc(N3CCC(F)(F)C3)sc2-c2ccc(N3CCS(=O)(=O)CC3)cc2)CC1 next?
**A:** 1000

**Q:** And then N#CC1(NC(=O)[C@@H]2CC(F)(F)CC[C@H]2c2nc(-c3cccnc3)sc2-c2ccc(N3CCS(=O)(=O)CC3)cc2)CC1 , what is it?
**A:** 49

**Q:** Now the same for N#CC1(NC(=O)[C@@H]2CCCC[C@H]2c2nc(-c3cccnc3)sc2-c2ccc(N3CCS(=O)(=O)C4(CC4)C3)cc2)CC1
**A:** 2150

###

Biological target: UniProtKB P43236
Assay: Cathepsin K Assay (hrbCat K)
Assay type: biochemical
Settings: Z-Leu-Arg-AMC substrate, pH 5.5, 15 min preincubation; read-out: hrbCat K (IP (nM))
READOUT NAME: IC50 (nM)
// return numeric value only (unit: nM, not printed)

**Q:** Can you look up IC50 on UniProtKB P43236 for N#CC(NC(=O)[C@@H]1CCCC[C@H]1c1nc(-c2ccc(F)cn2)sc1-c1ccc(N2CCS(=O)(=O)CC2)cc1)C(F)(F)F (mixture of isomers) ?
**A:** 2.4

**Q:** Thanks! And Cc1nc([C@@H]2CC[C@H](F)C[C@H]2C(=O)NC2(C#N)CC2)c(-c2ccc(N3CCC(C)(O)CC3)cc2)s1 ?
**A:** 26.3

**Q:** Subsequent entry: Cc1nc(C2CCCCC2C(=O)NCC#N)c(-c2ccc(N3CCS(=O)(=O)CC3)cc2)s1 (racemic)
**A:** 5.4

**Q:** Next up: CN=S1(=O)CCN(c2ccc(-c3sc(-c4ccc(F)cc4)nc3[C@@H]3CC[C@H](F)C[C@H]3C(=O)NC3(C#N)CC3)cc2)CC1
**A:** 3.5

**Q:** What about this compound? N#CC1(NC(=O)[C@@H]2CCCC[C@H]2c2nc(-c3ccc(F)cc3)sc2-c2ccc(C(=O)N3CCC(O)CC3)cc2)CC1
**A:** 101

**Q:** Lookup N#CC1(NC(=O)[C@@H]2CCCC[C@H]2c2nc(N3CCCC(F)(F)C3)sc2-c2ccc(N3CCS(=O)(=O)CC3)cc2)CC1
**A:** 2.9

###

Biological target: human cathepsin F (Homo sapiens, UniProt Q9UBX1)
Sequence (Q9UBX1 271-484): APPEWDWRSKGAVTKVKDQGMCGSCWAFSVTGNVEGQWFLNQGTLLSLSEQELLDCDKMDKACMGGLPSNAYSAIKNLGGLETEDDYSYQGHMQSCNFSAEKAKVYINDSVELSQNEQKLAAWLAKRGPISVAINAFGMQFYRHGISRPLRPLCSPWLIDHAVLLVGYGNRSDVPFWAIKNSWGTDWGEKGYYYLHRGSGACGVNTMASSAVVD
Experiment: Cathepsin F assay (hCat F)
Format: biochemical
Details: Z-Phe-Arg-AMC substrate, pH 5.5, 15 min preincubation; read-out: hCat F (IP (nM))
Assign IC50 to each entry below.
Dear colleague, please return just the value in nM, with no unit written.

**Q:** Given the compound CN=S1(=O)CCN(c2ccc(-c3sc(-c4ccc(F)cc4)nc3[C@@H]3CCCC[C@H]3C(=O)NC3(C#N)CC3)cc2)CC1 , what is its reported IC50?
**A:** 3330

**Q:** Also check N#CC1(NC(=O)[C@@H]2CCCC[C@H]2c2nc(Oc3ccc(F)cc3F)sc2-c2ccc(N3CCS(=O)(=O)CC3)cc2)CC1
**A:** 1020

**Q:** How about N#CC1(NC(=O)[C@@H]2CCCC[C@H]2c2nc(N3CCC(F)(F)CC3)sc2-c2ccc(N3CCS(=O)(=O)CC3)cc2)CC1 ?
**A:** 1000

**Q:** // same read-out, input: COc1ccccc1-c1nc([C@@H]2CCCC[C@H]2C(=O)NC2(C#N)CC2)c(-c2ccc(N3CCS(=O)(=O)CC3)cc2)s1
**A:** 1000

**Q:** Further, for N#CC1(NC(=O)[C@@H]2CCCC[C@H]2c2nc(-c3cncc(F)c3)sc2-c2ccc(N3CCS(=O)(=O)C4(CC4)C3)cc2)CC1 ?
**A:** 1370

###

Target: human cathepsin K (UniProt P43236)
Experiment: Cathepsin K Assay (hrbCat K)
Assay type: biochemical
Details: Z-Leu-Arg-AMC substrate, pH 5.5, 15 min preincubation; read-out: hrbCat K (IP (nM))
READOUT NAME: IC50

**Q:** IC50 for N#CC1(NC(=O)[C@@H]2CCCC[C@H]2c2nc(C3CCC(F)(F)C3)sc2-c2ccc(N3CCS(=O)(=O)CC3)cc2)CC1 (mixture of isomers) ?
**A:** 4.5 nM

**Q:** Can you check CC1(c2nc([C@@H]3CCCC[C@H]3C(=O)NC3(C#N)CC3)c(-c3ccc(N4CCS(=O)(=O)CC4)cc3)s2)CCOCC1 next?
**A:** 4.9 nM

**Q:** Can you handle N#CC1(NC(=O)[C@@H]2CCCC[C@H]2c2nc(-c3cccnc3)sc2-c2ccc(N3CCS(=O)(=O)CC3)cc2)CC1 next?
**A:** 0.5 nM

**Q:** Then N#CC1(NC(=O)[C@@H]2C[C@@H](F)CC[C@H]2c2nc(-c3cncc(F)c3)sc2-c2ccc(N3CCS(=O)(=O)CC3)cc2)CC1 ?
**A:** 0.9 nM

**Q:** Can you handle CC(C)[C@@H](C#N)NC(=O)[C@@H]1C[C@@H](F)CC[C@H]1c1nc(C2CC(F)(F)C2)sc1-c1ccc(N2CCS(=O)(=O)CC2)cc1 next?
**A:** 7.8 nM

**Q:** How about N#CC1(NC(=O)[C@@H]2CCCC[C@H]2c2nc(CCC(F)(F)F)sc2-c2ccc(N3CCS(=O)(=O)CC3)cc2)CC1 ?
**A:** 5.6 nM

###

Assignment: determine reported IC50 for the given compounds.
Target: human cathepsin K (UniProt P43236)
Experiment: Cathepsin K Assay (hrbCat K)
Type: biochemical
Conditions: Z-Leu-Arg-AMC substrate, pH 5.5, 15 min preincubation; read-out: hrbCat K (IP (nM))
Answer with a number only, understood to be in nM.

**Q:** Under human cathepsin K (UniProt P43236): IC50 value of N#CC1(NC(=O)[C@@H]2CCCC[C@H]2c2nc(-c3cccc(C(F)(F)F)n3)sc2-c2ccc(N3CCS(=O)(=O)CC3)cc2)CC1 [Example 132] ?
**A:** 1.8

**Q:** Quick one: N#CC1(NC(=O)[C@@H]2CCCC[C@H]2c2nc(N3CCC(F)(F)CC3)sc2-c2ccc(N3CCS(=O)(=O)CC3)cc2)CC1 [Compound 6]
**A:** 3.6

**Q:** Next: Cc1nc([C@@H]2CC[C@H](F)C[C@H]2C(=O)N[C@@H](C)C#N)c(-c2ccc(N3CCC(C)(O)CC3)cc2)s1 [Example 241]
**A:** 34.9

**Q:** Another compound to look at: N#CC1(NC(=O)[C@@H]2C[C@@H](F)CC[C@H]2c2nc(-c3ccc(C(F)(F)F)nn3)sc2-c2ccc(N3CCS(=O)(=O)CC3)cc2)CC1 [Example 197]
**A:** 512

**Q:** Moving on to Cc1nccc(-c2nc([C@@H]3CCCC[C@H]3C(=O)NC3(C#N)CC3)c(-c3ccc(N4CCS(=O)(=O)CC4)cc3)s2)n1 [Example 119]
**A:** 1.3

**Q:** Lookup C[C@@H](C#N)NC(=O)[C@@H]1C[C@@H](F)CC[C@H]1c1nc(C2CC(F)C2)sc1-c1ccc(N2CCS(=O)(=O)CC2)cc1 (single isomer, unassigned) [Example 234]
**A:** 4
